// NAD+ increase ratio compared to PBS control lookup, one value per entry
# System: Keratinocytes
# experimental details: NAD assay in keratinocytes (NAD+ increase)
# Type: cell-based
# measurement context: 3 hours incubation with compound, normalized NAD, ratio vs PBS control
Could you keep your reply to the number by itself?

Some molecules with known NAD+ increase ratio compared to PBS control results, for comparison:
molecule="CCCCCCCCCCCCCCCC(=O)OC[C@H](OC(=O)c1cccnc1)[C@H]1OC(=O)C(OC(=O)c2cccnc2)=C1OC(=O)c1cccnc1 [Compound 4]" target=Keratinocytes experimental_result=3.04
molecule="CCCCCCCCCCCCCCCC(=O)OC[C@@H](O)[C@@H]1OC(=O)C(OC(=O)c2cccnc2)=C1O [Compound 2]" target=Keratinocytes experimental_result=2.53
molecule="NC(=O)c1ccc[n+]([C@@H]2O[C@H](COC(=O)c3cccnc3)[C@@H](OC(=O)c3cccnc3)[C@H]2OC(=O)c2cccnc2)c1 [Compound 13]" target=Keratinocytes experimental_result=1.67

Request: Query NAD+ increase ratio compared to PBS control for CCCCCCCCCCCCCCCC(=O)OC[C@@H](O)[C@H]1OC(=O)C(OC(=O)c2cccnc2)=C1OC(=O)c1cccnc1 [Compound 15]
Result: 1.84

Request: Query NAD+ increase ratio compared to PBS control for CCCCCCCCCCCCCCCC(=O)OC[C@H](O)[C@H]1OC(=O)C(OC(=O)c2cccnc2)=C1OC(=O)c1cccnc1 [Compound 14]
Result: 8.33

Request: Query NAD+ increase ratio compared to PBS control for CC(C)(COC(=O)c1cccnc1)C(OC(=O)c1cccnc1)C(=O)NCCCOC(=O)c1cccnc1 (stereo not shown) [Compound 11]
Result: 2.7

Request: Query NAD+ increase ratio compared to PBS control for CCCCCCCCCCCCCCCC(=O)OC[C@@H](O)[C@@H]1OC(=O)C(O)=C1OC(=O)c1cccnc1 [Compound 3]
Result: 2.77
